Sourced from paper PMC4786809

Experiment: Urinary excretion after intravenous C3G
Assay type: in vivo, Wistar rats
Conditions: 5 min after i.v. 668 nmol C3G
Procedure: Twenty-two male Wistar rats (Rattus Norvegicus, Harlan Italy S.r.l.), of same age (15 weeks), 293–390 g of body weight, were used. The rats were randomly divided into 5 groups, according to the time that elapsed after intravenous administration of the test compound, and one control group. Each time point was represented by four biological replicates. […] During anaesthesia (10 min in all cases), the heart and ventilation rate were monitored. […]
readoutName: Urine concentration (nmol/g)

>>> reportedmeasurement("COc1cc(-c2[o+]c3cc(O)cc(O)c3cc2O[C@@H]2O[C@H](CO)[C@@H](O)[C@H](O)[C@H]2O)cc(OC)c1O [M3G, Malvidin-3-O-β-glucoside]")
0.00515
>>> reportedmeasurement("OC[C@H]1O[C@@H](Oc2cc3c(O)cc(O)cc3[o+]c2-c2ccc(O)cc2)[C@H](O)[C@@H](O)[C@@H]1O [PG3G, Pelargonidin-3-O-β-glucoside]")
0.04709
>>> reportedmeasurement("OC[C@H]1O[C@@H](Oc2cc3c(O)cc(O)cc3[o+]c2-c2cc(O)c(O)c(O)c2)[C@H](O)[C@@H](O)[C@@H]1O [D3G, Delphinidin-3-O-β-glucoside]")
0.05

1. COc1cc(-c2[o+]c3cc(O)cc(O)c3cc2O[C@@H]2O[C@H](CO)[C@@H](O)[C@H](O)[C@H]2O)ccc1O [PN3G, Peonidin-3-O-β-glucoside]
2. OC[C@H]1O[C@@H](Oc2cc3c(O)cc(O)cc3[o+]c2-c2ccc(O)c(O)c2)[C@H](O)[C@@H](O)[C@@H]1O [C3G, Cyanidin-3-O-β-glucoside]
[Q] // select label with min value of measured Urine concentration from [ 1 , 2 ] Select an item and report its label.
[A] 1
